- Measured On: c-kit (Homo sapiens, UniProt P10721)
- Construct: MO7e (human megakaryocytic leukemia cell line) which had been arrested for 20 hr; endogenous in cells; host or cells: MO7e human megakaryocytic leukemia cell line
- Sequence (P10721 26-976): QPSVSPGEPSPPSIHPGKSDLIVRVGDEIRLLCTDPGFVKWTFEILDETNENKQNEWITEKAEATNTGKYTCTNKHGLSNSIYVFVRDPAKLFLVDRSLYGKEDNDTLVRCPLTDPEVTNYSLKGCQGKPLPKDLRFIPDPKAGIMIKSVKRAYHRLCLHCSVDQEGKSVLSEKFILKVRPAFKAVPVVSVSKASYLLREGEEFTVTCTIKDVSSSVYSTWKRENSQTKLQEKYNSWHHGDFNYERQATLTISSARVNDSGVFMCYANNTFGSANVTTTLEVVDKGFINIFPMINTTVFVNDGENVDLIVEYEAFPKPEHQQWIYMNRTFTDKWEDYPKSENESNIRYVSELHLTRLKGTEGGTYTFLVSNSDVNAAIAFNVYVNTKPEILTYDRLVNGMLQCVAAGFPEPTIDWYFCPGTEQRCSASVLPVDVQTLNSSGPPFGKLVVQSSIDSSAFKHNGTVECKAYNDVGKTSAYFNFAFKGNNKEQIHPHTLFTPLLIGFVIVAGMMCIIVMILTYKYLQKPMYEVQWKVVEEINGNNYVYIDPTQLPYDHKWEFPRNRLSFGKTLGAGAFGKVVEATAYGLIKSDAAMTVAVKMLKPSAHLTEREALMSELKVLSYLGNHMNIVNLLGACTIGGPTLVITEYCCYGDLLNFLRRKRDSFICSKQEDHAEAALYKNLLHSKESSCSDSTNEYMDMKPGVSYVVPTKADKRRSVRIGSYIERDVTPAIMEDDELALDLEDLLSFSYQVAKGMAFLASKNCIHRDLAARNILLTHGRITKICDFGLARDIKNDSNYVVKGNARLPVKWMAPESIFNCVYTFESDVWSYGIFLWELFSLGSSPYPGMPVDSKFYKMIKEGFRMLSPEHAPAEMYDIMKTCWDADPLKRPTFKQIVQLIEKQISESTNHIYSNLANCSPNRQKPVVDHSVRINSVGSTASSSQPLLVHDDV
- Procedure Text: Inhibitory activity against c-kit autophosphorylation (MO7e cells, h-SCF)
- Format: cell-based
- Run Parameters: MO7e cells, 50 ng/ml h-SCF; read-out: c-kit IC50
Parameter Measured: IC50 (µM)
Answers are plain numbers, in µM.

The cases that follow already have their IC50 on record.
[
  {
    "Molecule": "CCN(CCNC(=O)Nc1ccc(Oc2ncnc3cc(OC)c(OC)cc23)cc1OC)c1cccc(C)c1",
    "Unit Text": "µM",
    "IC50": 0.144
  },
  {
    "Molecule": "COc1cc2nccc(Oc3ccc(NC(=O)NC4CCN(Cc5ccccc5Cl)C4)cc3)c2cc1OC (centres unmarked)",
    "Unit Text": "µM",
    "IC50": 0.145
  },
  {
    "Molecule": "COc1cc2nccc(Oc3ccc(NC(=O)OCCCN4CCN(C)CC4)cc3)c2cc1OC",
    "Unit Text": "µM",
    "IC50": 0.224
  },
  {
    "Molecule": "CCN(CCNC(=S)Nc1ccc(Oc2ccnc3cc(OC)c(OC)cc23)c(C)c1C)c1ccccc1C",
    "Unit Text": "µM",
    "IC50": 0.216
  },
  {
    "Molecule": "COc1cc2nccc(Oc3ccc(NC(=O)OCCCN4CCCCC4)c(C)c3C)c2cc1OC",
    "Unit Text": "µM",
    "IC50": 0.098
  }
]

I need IC50 for every entry listed below, if you could help.
1. COc1cc2ncnc(Oc3ccc(NC(=O)N[C@@H]4CCN(Cc5ccccc5)C4)cc3)c2cc1OC
2. COc1cc2ncnc(Oc3ccc(NC(=O)NC4CCN(Cc5ccccc5)CC4)cc3)c2cc1OC [Example 591]

Reply:
1. 0.276
2. 0.117

Task item: Requested field: IC50. Item: `COc1cc2ncnc(Oc3ccc(N(C)C(=O)OCc4ccccc4Cl)cc3)c2cc1OC`
Reply: 0.321

* * *

- Measured On: PDGF-Ra (Homo sapiens)
- Construct: host or cells: G-292 human osteosarcoma cells
- Sequence (P16234 24-1089): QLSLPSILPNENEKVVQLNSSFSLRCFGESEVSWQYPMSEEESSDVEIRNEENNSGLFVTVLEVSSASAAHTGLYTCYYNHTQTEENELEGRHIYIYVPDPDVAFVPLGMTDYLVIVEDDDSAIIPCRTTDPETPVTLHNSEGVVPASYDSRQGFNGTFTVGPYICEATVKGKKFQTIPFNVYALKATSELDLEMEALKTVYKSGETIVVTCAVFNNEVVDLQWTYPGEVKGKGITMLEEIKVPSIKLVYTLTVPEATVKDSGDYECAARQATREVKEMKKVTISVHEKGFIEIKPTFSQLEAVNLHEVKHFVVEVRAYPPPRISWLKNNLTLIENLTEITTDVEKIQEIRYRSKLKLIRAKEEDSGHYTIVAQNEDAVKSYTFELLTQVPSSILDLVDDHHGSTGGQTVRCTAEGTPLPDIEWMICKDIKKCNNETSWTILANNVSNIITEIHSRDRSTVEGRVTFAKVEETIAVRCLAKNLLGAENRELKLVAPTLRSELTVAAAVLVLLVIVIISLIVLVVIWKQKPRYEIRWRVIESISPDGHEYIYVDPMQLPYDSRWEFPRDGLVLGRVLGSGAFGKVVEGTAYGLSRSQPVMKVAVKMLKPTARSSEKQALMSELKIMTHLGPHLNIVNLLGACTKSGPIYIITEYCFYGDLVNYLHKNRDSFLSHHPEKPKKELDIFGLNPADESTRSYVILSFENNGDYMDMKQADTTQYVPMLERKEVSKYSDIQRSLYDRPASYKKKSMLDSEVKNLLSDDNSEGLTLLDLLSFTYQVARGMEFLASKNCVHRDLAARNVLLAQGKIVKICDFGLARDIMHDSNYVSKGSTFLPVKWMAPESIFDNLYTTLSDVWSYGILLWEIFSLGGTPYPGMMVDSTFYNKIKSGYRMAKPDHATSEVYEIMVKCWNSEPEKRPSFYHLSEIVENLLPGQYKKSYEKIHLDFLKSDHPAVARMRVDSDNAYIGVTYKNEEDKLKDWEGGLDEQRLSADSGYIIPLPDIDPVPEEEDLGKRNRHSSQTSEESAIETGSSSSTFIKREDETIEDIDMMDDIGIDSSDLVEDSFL
- Procedure Text: Inhibitory activity against PDGF-Ra phosphorylation by PDGF-AA stimulation using G292
- Type: cell-based
- Run Parameters: > means inhibition at indicated concentration not more than 50%, < and << not less than 50%; read-out: PDGF (E) IC50
I'd be grateful if you could share measured IC50 for these entries.

The cases that follow already have their IC50 on record.
[
  {
    "Compound": "COc1cc2nccc(Oc3ccc(OCCCOc4cccc(C)c4)cc3)c2cc1OC",
    "IC50": "3 nM"
  },
  {
    "Compound": "COc1cc2nccc(Oc3ccc(NC(=S)NC(=O)Cc4cccs4)cc3)c2cc1OC",
    "IC50": "13 nM"
  },
  {
    "Compound": "COc1cc(Oc2ncnc3cc(OC)c(OC)cc23)ccc1NC(=O)OCc1ccccc1Cl",
    "IC50": "< 10 nM"
  }
]

I need IC50 for every entry listed below, if you could help.
1. COc1cc2ncnc(Oc3ccc(NC(=O)NC4CCN(Cc5ccc(C(C)(C)C)cc5)C4)cc3)c2cc1OC (centres unmarked)
2. COc1cc2nccc(Oc3ccc(NC(=S)NC(=O)N(C(C)C)C(C)C)cc3)c2cc1OC
3. COc1cc2ncnc(Oc3ccc(NC(=O)OC4CCN(C)CC4)cc3)c2cc1OC
4. COc1cc2nccc(Oc3ccc(NC(=S)NC(=O)COc4ccccc4C)cc3)c2cc1OC
5. COc1cc2nccc(Oc3cc(C)c(NC(=S)NCCCn4ccnc4)cc3C)c2cc1OC
6. COc1cc2ncnc(Oc3ccc(OCC(=O)N4CCC(Cc5ccccc5)CC4)cc3)c2cc1OC
7. CCN(C(=O)OCc1ccccc1Cl)c1ccc(Oc2ncnc3cc(OC)c(OC)cc23)cc1Cl

Reply:
1. > 100 nM
2. 27 nM
3. > 100 nM
4. < 10 nM
5. > 100 nM
6. 37 nM
7. > 100 nM

I need IC50 for every entry listed below, if you could help.
1. CCN(CC)CCNC(=O)Nc1ccc(Oc2ccnc3cc(OC)c(OC)cc23)cc1
2. COc1cc2nccc(Oc3ccc(NCCOc4ccc(C)cc4)cc3C)c2cc1OC
3. COc1cc2ncnc(Oc3ccc(OCC(=O)O)cc3)c2cc1OC
4. COc1ccccc1CCC(=O)NC(=S)Nc1ccc(Oc2ncnc3cc(OC)c(OC)cc23)cc1

Reply:
11 nM
20 nM
> 100 nM
< 10 nM

* * *

- Measured On: c-kit (Homo sapiens, UniProt P10721)
- Construct: MO7e (human megakaryocytic leukemia cell line) which had been arrested for 20 hr; endogenous in cells; host or cells: MO7e human megakaryocytic leukemia cell line
- Procedure Text: Inhibitory activity against c-kit autophosphorylation (MO7e cells, h-SCF)
- Type: cell-based
- Run Parameters: MO7e cells, h-SCF 50 ng/ml; read-out: c-kit IC50
I'd be grateful if you could share measured pIC50 for these entries.
Answers are plain numbers, as −log10 of the molar value.

The cases that follow already have their pIC50 on record.
[
  {
    "Compound": "COc1cc2ncnc(Oc3ccc(NC(=O)OC(C)c4cc(F)c(F)cc4F)cc3)c2cc1OC (centres unmarked)",
    "Recorded Measurement": 6.02
  },
  {
    "Compound": "COc1ccc(C(C)OC(=O)Nc2ccc(Oc3ccnc4cc(OC)c(OC)cc34)cc2)cc1 (centres unmarked)",
    "Recorded Measurement": 6.64
  },
  {
    "Compound": "CCCCOC(=O)Nc1cc(C)c(Oc2ccnc3cc(OC)c(OC)cc23)cc1C",
    "Recorded Measurement": 7.22
  },
  {
    "Compound": "COc1cc2nccc(Oc3ccc(NC(=O)Oc4ccc(-c5ccccc5)cc4)c(C)c3C)c2cc1OC",
    "Recorded Measurement": 6.96
  },
  {
    "Compound": "COc1cc2nccc(Oc3ccc(NC(=O)OC4CCCC4)c(C)c3C)c2cc1OC",
    "Recorded Measurement": 7.33
  }
]

I need pIC50 for every entry listed below, if you could help.
1. COc1cc2nccc(Oc3cc(C)c(NC(=O)OC4CCCC4)cc3C)c2cc1OC
2. COc1cc2ncnc(Oc3ccc(NC(=O)OCCSc4cc(C)ccc4C)cc3)c2cc1OC
3. COc1cc2nccc(Oc3ccc(NC(=O)OCCCCCCN(C)C)cc3)c2cc1OC

Reply:
1. 7.01
2. 7.28
3. 6.55

* * *

- Measured On: c-kit (Homo sapiens)
- Construct: MO7e (human megakaryocytic leukemia cell line) which had been arrested for 20 hr; endogenous in cells; host or cells: MO7e human megakaryocytic leukemia cell line
- Procedure Text: Inhibitory activity against c-kit autophosphorylation (MO7e cells, h-SCF)
- Assay type: cell-based
- Run Parameters: Mo7e, figure in parentheses in −( ); at 1000 nM
I'd be grateful if you could share measured inhibition at 1 µM for these entries.
Give bare numbers, in %.

The cases that follow already have their inhibition at 1 µM on record.
[
  {
    "Compound": "COc1cc2nccc(Oc3ccc(NC(=S)NC(=O)c4ccccc4OC)cc3F)c2cc1OC",
    "Recorded Measurement": 16
  },
  {
    "Compound": "COc1cc2nccc(Oc3ccc(NC(=S)NC(=O)c4ccc(Cl)cc4Cl)c(F)c3)c2cc1OC",
    "Recorded Measurement": 20
  },
  {
    "Compound": "CCCc1ccc(C(=O)NC(=S)Nc2ccc(Oc3ccnc4cc(OC)c(OC)cc34)c(Cl)c2)cc1",
    "Recorded Measurement": 34
  },
  {
    "Compound": "COc1cc2nccc(Oc3ccc(NC(=S)NC(=O)c4ccc([N+](=O)[O-])cc4)cc3Cl)c2cc1OC",
    "Recorded Measurement": 18
  }
]

I need inhibition at 1 µM for every entry listed below, if you could help.
1. CCOc1ccccc1C(C)OC(=O)Nc1ccc(Oc2ncnc3cc(OC)c(OC)cc23)cc1Cl (centres unmarked)
2. COc1cc2nccc(Oc3ccc(NC(=S)NC(=O)c4ccccc4C)c(F)c3)c2cc1OC

Reply:
40
46

I need inhibition at 1 µM for every entry listed below, if you could help.
1. COc1ccc(C(=O)NC(=S)Nc2ccc(Oc3ncnc4cc(OC)c(OC)cc34)cc2)cc1
2. COc1ccc(C(C)OC(=O)Nc2ccc(Oc3ncnc4cc(OC)c(OC)cc34)cc2Cl)cc1 (centres unmarked)

Reply:
1: 33; 2: 19

* * *

I'd be grateful if you could share measured IC50 for these entries.
- Measured On: PDGF-Ra (Homo sapiens)
- Construct: host or cells: G-292 human osteosarcoma cells
- Procedure Text: Inhibitory activity against PDGF-Ra phosphorylation by PDGF-AA stimulation using G292
- Type: cell-based
- Run Parameters: > means inhibition at indicated concentration not more than 50%, < and << not less than 50%; read-out: PDGF (E) IC50
Numbers only, in µM.

The cases that follow already have their IC50 on record.
[
  {
    "Molecule": "COc1cc(Oc2ncnc3cc(OC)c(OC)cc23)ccc1NC(=O)NN1CCCCC1",
    "Measured On": "PDGF-Ra (Homo sapiens)",
    "Unit Text": "µM",
    "IC50": 0.063
  },
  {
    "Molecule": "COc1cc2nccc(Oc3ccc(NC(=S)NC(=O)C(C)Oc4ccccc4Cl)cc3Cl)c2cc1OC (centres unmarked)",
    "Measured On": "PDGF-Ra (Homo sapiens)",
    "Unit Text": "µM",
    "IC50": 0.014
  },
  {
    "Molecule": "COc1cc2nccc(Oc3ccc(NC(=O)OCCCN4CCN(C)CC4)cc3)c2cc1OC",
    "Measured On": "PDGF-Ra (Homo sapiens)",
    "Unit Text": "µM",
    "IC50": 0.047
  },
  {
    "Molecule": "COc1ccccc1NCCOc1ccc(Oc2ccnc3cc(OC)c(OC)cc23)cc1",
    "Measured On": "PDGF-Ra (Homo sapiens)",
    "Unit Text": "µM",
    "IC50": 0.011
  },
  {
    "Molecule": "COc1cc2ncnc(Oc3ccc(NC(=O)NC4CCN(Cc5ccccc5C)C4)cc3)c2cc1OC (centres unmarked)",
    "Measured On": "PDGF-Ra (Homo sapiens)",
    "Unit Text": "µM",
    "IC50": 0.012
  }
]

I need IC50 for every entry listed below, if you could help.
1. COc1cc2nccc(Oc3ccc(NC(=O)OC4CCOCC4)c(C)c3C)c2cc1OC
2. COc1ccc(CCC(=O)NC(=S)Nc2ccc(Oc3ccnc4cc(OC)c(OC)cc34)c(Cl)c2)cc1OC
3. COc1cc2ncnc(Oc3ccc(N(C)C(=O)OC4CCCCC4)c(Cl)c3)c2cc1OC
4. COc1cc2ncnc(Oc3ccc(NC(=O)NC4CCN(Cc5ccccc5)CC4)cc3)c2cc1OC [Example 636]
5. COc1cc2nccc(Oc3ccc(NC(=S)NC(=O)c4ccc(CN5CCOCC5)cc4)cc3)c2cc1OC

Reply:
1. 0.031
2. 0.083
3. 0.046
4. 0.033
5. 0.043

I need IC50 for every entry listed below, if you could help.
1. COc1cc2nccc(Oc3ccc(NC(=S)NC(=O)CCCc4ccccc4)cc3Cl)c2cc1OC
2. COc1cc2ncnc(Oc3ccc(N(C)C(=O)OCc4ccccc4C)c(Cl)c3)c2cc1OC

Reply:
0.037
0.013

I need IC50 for every entry listed below, if you could help.
1. CCCCN(CCCC)CCNC(=O)Nc1ccc(Oc2ncnc3cc(OC)c(OC)cc23)cc1[N+](=O)[O-]
2. COc1cc2nccc(Oc3ccc(NC(=S)NC(=O)N(C(C)C)C(C)C)cc3Cl)c2cc1OC
3. CCN(CC)CCNC(=O)Nc1ccc(Oc2ccnc3cc(OC)c(OC)cc23)cc1[N+](=O)[O-]
4. COc1cc2nccc(Oc3ccc(NC(=S)NC(=O)c4cc(C)cc(C)c4)cc3Cl)c2cc1OC
5. CCN(CC)CCNC(=O)Nc1ccc(Oc2ncnc3cc(OC)c(OC)cc23)cc1OC
6. COc1cc2ncnc(Oc3ccc(NC(=S)NCCN4CCCCC4)cc3)c2cc1OC

Reply:
1. 0.026
2. 0.023
3. 0.011
4. 0.022
5. 0.036
6. 0.038
